testedOn: SARS-CoV-2 M^pro (Severe acute respiratory syndrome coronavirus 2, UniProt P0DTD1)
pIC50: −log10 of the molar value.
I would appreciate it if you labelled entries MET when pIC50 is 5 or higher, otherwise NOT MET.

Confirm if pIC50 reported for the compound CC(=O)c1cccc(NC(=O)C(=O)[C@H](C[C@@H]2CCNC2=O)NC(=O)[C@H](CC(C)C)NC(=O)[C@@H](NC(=O)OC(C)(C)C)C(C)(C)C)c1 is 5 or above. MET

====

testedOn: UniProt:P0DTD1
procedureDetails: SARS-CoV-2 M^pro enzyme inhibition assay (FRET substrate)
Type: biochemical
conditionDetails: 150 nM enzyme, 30 min preincubation, 25 µM substrate, mean ± SD
resultType: IC50 (µM)
Give the number; µM is assumed, so skip it.

1. COc1ccc(C[C@H](NC(=O)[C@@H](NC(=O)OC(C)(C)C)C(C)C)C(=O)N[C@@H](C[C@@H]2CCNC2=O)C(=O)C(=O)Nc2cccc(C(C)=O)c2)cc1 ... 8.7

Entry COC[C@H](NC(=O)OC(C)(C)C)C(=O)N[C@@H](Cc1ccc(OC)cc1)C(=O)N[C@@H](C[C@@H]1CCNC1=O)C(=O)C(=O)Nc1cccc(C(C)=O)c1 , system UniProt:P0DTD1: what IC50 was measured? 28.9

// query: COc1ccc(C[C@H](NC(=O)[C@@H](NC(=O)OC(C)(C)C)C(C)(C)C)C(=O)N[C@@H](C[C@@H]2CCNC2=O)C(=O)C(=O)Nc2cccc(C(C)=O)c2)cc1 6.3

// query: COc1ccc(C[C@H](NC(=O)[C@H](C)NC(=O)c2cnc(-c3ccc(C(C)=O)cc3)s2)C(=O)N[C@@H](C[C@@H]2CCNC2=O)C(=O)C(=O)Nc2cccc(C(C)=O)c2)cc1 9.4

// query: COc1ccc(C[C@H](NC(=O)[C@H](CC(C)C)NC(=O)OC(C)(C)C)C(=O)N[C@@H](C[C@@H]2CCNC2=O)C(=O)C(=O)Nc2cccc(C(C)=O)c2)cc1 9.9

// query: COc1ccc(C[C@H](NC(=O)[C@H](C)NC(=O)OC(C)(C)C)C(=O)N[C@@H](C[C@@H]2CCNC2=O)C(=O)C(=O)Nc2cccc(C(C)=O)c2)cc1 24.8

Each recorded value in this set is attributed to paper PMC12548382.
